Reported SPOT peptide array binding signal intensity values are given for each entry in this list.
tested-target: AgAbp1
experiment-summary: SPOT peptide array binding signal intensity (averaged, normalized) (arbitrary units (background-subtracted, floor 0; scale differs between SH3 domains)); higher = stronger binding of the SH3 domain to the peptide

Answered examples (2):
TPEIPPPLPPKIMVH | ≤ 0
PPIPIVPSSPAPPLP | ≤ 0

Moving on to another binder below.
Value lookup for SPOT peptide array binding signal intensity; key = `VNFRRIPTGPDSPPT`
≤ 0
